All figures here come from the supplement of paper PMC11451515.

Test system: P12-Ichikawa
Experiment: cell viability relative to DMSO control; higher = less cytotoxic
Details: RPMI 5 mM glucose + 10% dialyzed FBS; 48 h; 0.569 µM
What cell viability was measured for each of the following?
One number for each entry, in %.

> print(dat)
                                   compound  reported.result
1  CC(C)c1cc(C(C)C)c(CC(=O)N[S+](=O)([O-])Oc2c(C(C)C)cccc2C(C)C)c(C(C)C)c1             98.3
2  COC1=CC=C(C(=C1)OC(C)C)C/2=N/[C@@H]([C@@H](N2C(=O)N3CCNC(=O)C3)C4=CC=C(Cl)C=C4)C5=CC=C(Cl)C=C5              112
3  C=C[C@H]1CN2CCC1C[C@@H]2C(O)c1ccnc2ccc(OC)cc12 (some centres undefined)              136
4  C=CC(=O)Nc1cc2c(Nc3ccc(F)c(Cl)c3)ncnc2cc1OCCCN1CCOCC1              127
5  COc1ccc(C(=O)CC2(O)C(=O)Nc3c(Cl)ccc(Cl)c32)cc1 (centres undefined)              122

For each entry beneath this line, provide reported cell viability.
1. N[C@@H]1CONC1=O
2. CC(C)(O)CC(=O)NCCn1ccc2ncnc(Nc3ccc(Oc4cccc(C(F)(F)F)c4)c(Cl)c3)c21
3. O=P(O)(O)C(O)(Cn1ccnc1)P(=O)(O)O
4. Cc1coc2c1C(=O)C(=O)c1c-2ccc2c1CCCC2(C)C

Resp:
1. 98.7
2. 110
3. 116
4. 87.3

====

Could you please report measured cell viability for the items listed next?
Tested on: NOMO1
Assay: cell viability relative to DMSO control; higher = less cytotoxic
Details: RPMI 5 mM glucose + 10% dialyzed FBS; 48 h; 0.00702 µM
Numbers only, in %.

molecule	cell viability / %
C[C@@H](CN1CC(=O)NC(=O)C1)N1CC(=O)NC(=O)C1	99.9

Please supply cell viability for each of the following items, keeping them in order.
1. CCOC(=O)\C1=C\[C@]2(CC)CCCN3CCC4=C([C@H]23)[N]1C5=C4C=CC=C5
2. C=C[C@H]1CN2CCC1C[C@@H]2C(O)c1ccnc2ccc(OC)cc12 (some centres not stated)
3. CNC(=O)c1ccc(Nc2cc(Nc3ccccc3[S+](=O)([O-])C(C)C)c3cc[nH]c3n2)nc1
4. Cc1csc(-c2nnc(Nc3ccc(Oc4ncccc4-c4ccnc(N)n4)cc3)c3ccccc23)c1
5. Cc1ccnc2c1NC(=O)c1cccnc1N2C1CC1

Resp:
118
116
101
89.8
110

Each molecule below has a recorded value; state its cell viability.
1. Cc1cccc(Nc2ccncc2[S+](=O)([O-])NC(=O)NC(C)C)c1
2. CC(=O)Oc1ccccc1C(=O)Nc1ncc([N+](=O)[O-])s1

Resp:
81.1
77.7

Okay, here is my list. What is cell viability for each of these?
1. C[C@@H]1CCO[C@H]2CN\3/C=C(/C(=O)NCC4=C(F)C=C(F)C=C4)C(=O)\C(=C3C(=O)N12)O
2. CC#CCn1c(N2CCC[C@@H](N)C2)nc2c1c(=O)n(Cc1nc(C)c3ccccc3n1)c(=O)n2C
3. C[C@]12CC[C@H]3[C@@H](CCC4=CC(=O)CC[C@@H]43)[C@@H]1CC[C@@H]2OC(=O)CCc1ccccc1
4. Cc1coc2c1C(=O)C(=O)c1c-2ccc2c1CCCC2(C)C
5. CC(C)(O)CC(=O)NCCn1ccc2ncnc(Nc3ccc(Oc4cccc(C(F)(F)F)c4)c(Cl)c3)c21

Resp:
1. 106
2. 112
3. 115
4. 95.7
5. 95.3

Look up cell viability for the entries below, preserving their order.
1. CCCCOc1c(C(=O)c2c(F)cc(C)cc2F)cnc2[nH]ncc12
2. COC1=CC=C(C(=C1)OC(C)C)C/2=N/[C@@H]([C@@H](N2C(=O)N3CCNC(=O)C3)C4=CC=C(Cl)C=C4)C5=CC=C(Cl)C=C5
3. NC[C@H]1O[C@H](O[C@@H]2[C@H](O)[C@@H](O[C@H]3O[C@H](CO)[C@@H](O)[C@H](N)[C@H]3O)[C@H](N)C[C@@H]2N)[C@H](O)[C@@H](O)[C@@H]1O

Resp:
1. 100
2. 104
3. 114

Req: Which cell viability is listed for Nc1ncnc2c1ncn2[C@@H]1O[C@H](CO)C[C@H]1O ?
Resp: 94.9
